System: Klebsiella pneumoniae
Assay: Antibacterial activity against drug-resistant carbapenemase producing Klebsiella pneumoniae clinical isolate KP-13-45 after 16 to 20 hrs by broth microdilution method
Assay type: functional
Outcome measure: MIC (µg/mL)
Dear colleague, please return just the value in µg/mL, with no unit written.

CCCCCCCC[N+](C)(C)CC(=O)Nc1ccc(C(=O)/C=C/c2ccccc2F)cc1.[Cl-] = 4
CCCCCCCC[N+](C)(C)CC(=O)Nc1ccc(C(=O)/C=C/c2ccc3ccccc3c2)cc1.[Cl-] = 16

Input: Name the reported MIC value associated with the molecule CCCCCCCC[N+](C)(C)CC(=O)Nc1ccc(C(=O)/C=C/c2cccc(Cl)c2)cc1.[Cl-]
Output: 4

Input: // same read-out, input: CCCCCCCC[N+](C)(C)CC(=O)Nc1ccc(C(=O)/C=C/c2ccc(OC)cc2)cc1.[Cl-]
Output: 8

Input: // same read-out, input: CCCCCCCC[N+](C)(C)CC(=O)Nc1ccc(C(=O)/C=C/c2ccco2)cc1.[Cl-]
Output: 32

###

Test: Hemolytic activity in sheep RBC after 1 hr
Type: ADME, cell-based, Ovis aries, Erythrocyte
Settings: sheep red blood cells (erythrocytes)
Quick reference: HC50 at 1 h of the listed items.
Dear colleague, please return just the value in µg/mL, with no unit written.

Known HC50 at 1 h results, listed for orientation:
CCCCCCCC[N+](C)(C)CC(=O)Nc1ccc(C(=O)/C=C/c2ccccc2)cc1.[Cl-] = 228
CCCCCCCC[N+](C)(C)CC(=O)Nc1ccc(C(=O)/C=C/c2ccccn2)cc1.[Cl-] = 187
CCCCCCCC[N+](C)(C)CC(=O)Nc1ccc(C(=O)/C=C/c2ccc(C(C)(C)C)cc2)cc1.[Cl-] = 284

Input: Name the reported HC50 at 1 h value associated with the compound CCCCCCCC[N+](C)(C)CC(=O)Nc1ccc(C(=O)/C=C/c2cccc(Cl)c2)cc1.[Cl-]
Output: 186

Input: // same read-out, input: CCCCCCCC[N+](C)(C)CC(=O)Nc1ccc(C(=O)/C=C/c2cc([N+](=O)[O-])ccc2OCC)cc1.[Cl-]
Output: 102

Input: // same read-out, input: CCCCCCCC[N+](C)(C)CC(=O)Nc1cccc(C(=O)/C=C/c2cccs2)c1.[Cl-]
Output: 249

Input: // same read-out, input: CCCCCCCC[N+](C)(C)CC(=O)Nc1ccc(C(=O)/C=C/c2cccc(Br)n2)cc1.[Cl-]
Output: 363

Input: // same read-out, input: CCCC[N+](C)(C)CC(=O)Nc1ccc(C(=O)/C=C/c2ccccc2F)cc1.[Cl-]
Output: 262

Input: // same read-out, input: CCCCCCCC[N+](C)(C)CC(=O)Nc1ccc(C(=O)/C=C/c2ccncc2)cc1.[Cl-]
Output: 200

Input: // same read-out, input: CCCCCCCC[N+](C)(C)CC(=O)Nc1ccc(C(=O)/C=C/c2cccs2)cc1.[Cl-]
Output: 133

Input: // same read-out, input: CCCC[N+](C)(C)CC(=O)Nc1ccc(C(=O)/C=C/c2cccs2)cc1.[Cl-]
Output: 360

Input: // same read-out, input: CCCCCCCC[N+](C)(C)CC(=O)Nc1ccc(C(=O)/C=C/c2cccc(F)c2F)cc1.[Cl-]
Output: 56

Input: // same read-out, input: CCCCCCCC[N+](C)(C)CC(=O)Nc1ccc(C(=O)/C=C/c2ccc3ccccc3c2)cc1.[Cl-]
Output: 374

Input: // same read-out, input: CCCCCCCC[N+](C)(C)CC(=O)Nc1ccc(C(=O)/C=C/c2ccc(F)cc2)cc1.[Cl-]
Output: 83

Input: // same read-out, input: CCCCCCCC[N+](C)(C)CC(=O)Nc1ccc(C(=O)/C=C/c2ncccc2F)cc1.[Cl-]
Output: 83

Input: // same read-out, input: CCCCCCCC[N+](C)(C)CC(=O)Nc1ccc(C(=O)/C=C/c2ccc(F)cc2F)cc1.[Cl-]
Output: 54

Input: // same read-out, input: CCCCCCCCCCCCCCCCCC[N+](C)(C)CC(=O)Nc1ccc(C(=O)/C=C/c2ccccc2F)cc1.[Cl-]
Output: 444

Input: // same read-out, input: CCCCCCCCCCCC[N+](C)(C)CC(=O)Nc1ccc(C(=O)/C=C/c2ccccc2F)cc1.[Cl-]
Output: 293

Input: // same read-out, input: CCCCCCCC[N+](C)(C)CC(=O)Nc1ccc(C(=O)/C=C/c2ccc(C)cc2)cc1.[Cl-]
Output: 153

Input: // same read-out, input: CCCCCCCCCCCCCC[N+](C)(C)CC(=O)Nc1ccc(C(=O)/C=C/c2ccccc2F)cc1.[Cl-]
Output: 192
